# Tested on: U2OS
# assay-explanation: Incucyte cell viability with U2OS; note: filed as whole numbers so only -1 and 0 and 1 occur
# Assay type: toxicity, cell-based
# experimental-context: human, 24 h, 10 µM, compound concentration 10 uM, replicate number 1, timepoint 24 hours
readout-label: Growth Rate

Report Growth Rate for CCN(CC)CCCCC1CCN(CC(=O)N2c3ccccc3C(=O)Nc3cccnc32)CC1 please. 1

Return reported Growth Rate; argument: O=C(O)c1ccc2c(c1)nc(Nc1cccc(Cl)c1)c1ccncc12 [SILMITASERTIB] 0

Using the record for CC(=O)[C@@]1(O)CC[C@H]2[C@@H]3C[C@H](C)C4=CC(=O)CC[C@]4(C)[C@H]3CC[C@@]21C , report its Growth Rate. 1

Sample COc1cc2c(cc1-c1c(C)noc1C)ncc1[nH]c(=O)n([C@H](C)c3ccccn3)c12 — what was its Growth Rate? 1
